// data source = PubChem BioAssay (EPA / NIEHS)

Target: Adenosine receptor A1 (Bos taurus) (UniProt P28190)
Sequence (P28190 whole entry, looked up): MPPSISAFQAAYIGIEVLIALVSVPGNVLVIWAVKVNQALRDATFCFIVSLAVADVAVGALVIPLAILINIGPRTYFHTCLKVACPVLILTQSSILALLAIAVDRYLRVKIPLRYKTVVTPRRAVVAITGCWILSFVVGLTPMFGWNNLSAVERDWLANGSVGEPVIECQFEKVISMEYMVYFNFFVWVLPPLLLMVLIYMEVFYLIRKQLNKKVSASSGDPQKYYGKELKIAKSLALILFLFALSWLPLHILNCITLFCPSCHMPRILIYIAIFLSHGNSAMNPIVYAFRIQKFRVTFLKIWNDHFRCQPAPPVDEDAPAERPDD
Experiment: NVS_GPCR_bAdoR_NonSelective: NovaScreen (NVS) G Protein-Coupled Receptor Assay for bovine Adenosine Receptor (AdoR), Non-selective Binding (AID 2283244)
Inconclusive results are not listed. Active and inactive are the calls of the source. How the source made its calls: active means hit-call score of the fitted dose curve at least 0.9, where 1 is the maximum; inconclusive means response in the unintended direction; inactive means score below 0.9.
QUANTITY: AC50

Worked set:
>  <COMPOUND_STRUCTURE_STRING>
O=[N+]([O-])C(Br)(CO)CO

>  <ASSAY_SYSTEM>
Adenosine receptor A1 (Bos taurus) (UniProt P28190)

>  <AC50>
16.5 µM (active)

$$$$
>  <COMPOUND_STRUCTURE_STRING>
Nc1ccc(Cl)cc1N

>  <ASSAY_SYSTEM>
Adenosine receptor A1 (Bos taurus) (UniProt P28190)

>  <AC50>
inactive

$$$$
>  <COMPOUND_STRUCTURE_STRING>
[Cl-].[Cl-].[Hg+2]

>  <ASSAY_SYSTEM>
Adenosine receptor A1 (Bos taurus) (UniProt P28190)

>  <AC50>
19.1 µM (active)

$$$$
>  <COMPOUND_STRUCTURE_STRING>
Nc1ccc(N=Nc2ccccc2)cc1

>  <ASSAY_SYSTEM>
Adenosine receptor A1 (Bos taurus) (UniProt P28190)

>  <AC50>
25 µM (active)

$$$$

--- query ---
Field AC50 (Adenosine receptor A1 (Bos taurus) (UniProt P28190)), entry CS(=O)(=O)NC(=O)c1cc(Oc2ccc(C(F)(F)F)cc2Cl)ccc1[N+](=O)[O-] : inactive

###

Assay: Tanguay_ZF_120hpf_SOMI_legacy: (Legacy) Oregon State University Tanguay Lab 120 Hour Post-fertilization zebrafish Assay for Somite Malformation (AID 2283647)
Results filed as inconclusive are left out. Active and inactive are the calls of the source. Rule for the calls: active = hit-call score of the fitted dose curve at least 0.9, where 1 is the maximum; inconclusive = response in the unintended direction; inactive = score below 0.9.
QUANTITY: outcome

Worked set:
>  <COMPOUND>
CCCCCCCCCCCCCN1CC(C)OC(C)C1 (stereo not drawn)

>  <outcome>
inactive

$$$$
>  <COMPOUND>
C[N+](C)(C)CC1CO1 (stereo not drawn)

>  <outcome>
inactive

$$$$
>  <COMPOUND>
CC(O)CCO (stereo not drawn)

>  <outcome>
inactive

$$$$
>  <COMPOUND>
CCOc1cccc(C2(N3CCN(c4ccccc4)CC3)CCC(C)CC2)c1 (stereo not drawn)

>  <outcome>
inactive

$$$$
>  <COMPOUND>
C=CCc1ccc2c(c1)OCO2

>  <outcome>
inactive

$$$$

Kindly note the recorded outcome for OCCOCCO , which is inactive

Kindly note the recorded outcome for CCC[CH2][Sn]([Cl])([CH2]CCC)[CH2]CCC , which is inactive

Kindly note the recorded outcome for CO[C@@H]1[C@H](OC(=O)NC(=O)CCl)CC[C@]2(CO2)[C@H]1[C@@]1(C)O[C@@H]1CC=C(C)C , which is inactive

###

Assay: ATG_TCF_b_cat_CIS: Attagene CIS-FACTORIAL HepG2 Assay for human T-Cell-Factor with beta-catenin (TCF/b-cat) (AID 2282965)
Settings: HepG2 TCF/beta-catenin cis-reporter transcription, actives raise or lower the signal
Active and inactive are the calls of the source. The calls were made as follows: active = hit-call score of the fitted dose curve at least 0.9, where 1 is the maximum; inactive = score below 0.9.
QUANTITY: outcome

>  <COMPOUND_STRUCTURE_STRING>
CS(=O)(=O)NC(=O)c1cc(Oc2ccc(C(F)(F)F)cc2Cl)ccc1[N+](=O)[O-]

>  <VALUE_OBSERVED>
inactive

$$$$
>  <COMPOUND_STRUCTURE_STRING>
COP(=S)(OC)SCN1C(=O)c2ccccc2C1=O

>  <VALUE_OBSERVED>
inactive

$$$$
>  <COMPOUND_STRUCTURE_STRING>
c1ccc2c(c1)-c1cccc3cccc-2c13

>  <VALUE_OBSERVED>
inactive

$$$$
